biological target: HIV-1 integrase / human LEDGF/p75 complex; test: blockers of LEDGF/p75-dependent integrase activity – biochemical, TR-FRET, dose response (AID 1053172); conditions: TR-FRET integrase-LEDGF/p75 DNA integration
Calls of active or inactive are those of the source. No rule for the calls is given here.
Select the correct class. Options are active, inactive and nothing else.

| Molecule | Study target | Cat |
| --- | --- | --- |
| Cc1c(O)cc2c(c1O)C(=O)CC(c1ccc(O)cc1)O2 (stereo unspecified) | HIV-1 integrase / human LEDGF/p75 complex | active |
| COCCN(CCOC)Cc1c(O)ccc2c1O/C(=C\c1ccc(C)o1)C2=O | HIV-1 integrase / human LEDGF/p75 complex | inactive |
| O=C(O)CC(CCc1ccccc1)OC1OC(CO)C(O)C(O)C1O (stereo unspecified) | HIV-1 integrase / human LEDGF/p75 complex | active |
| O=C1CCCC(O)=C1N=Nc1ccc(C(=O)O)cc1 | HIV-1 integrase / human LEDGF/p75 complex | active |

State the result this test recorded for O=c1cc(-c2ccc(O)cc2)oc2cc(O)c(C3OC(CO)C(O)C(O)C3O)c(O)c12 (stereo unspecified) .
active

State the result this test recorded for `Cc1cc2nc3ccc(N(C)C)cc3nc2cc1N` .
inactive

State the result this test recorded for O=C(Nc1nc(-c2ccco2)c(-c2ccco2)s1)C1CC(=O)N(c2ccc3c(c2)OCCO3)C1 (stereo unspecified) .
inactive

State the result this test recorded for `Cc1ccc(/C=C2/C(=O)c3ccc(C(=O)O)cc3C2=O)o1` .
active

State the result this test recorded for `CN(CCC#N)C(=O)COC(=O)c1c2c(nc3ccccc13)/C(=C\c1ccco1)CC2` .
active

State the result this test recorded for `O=c1c(O)c(-c2ccc(O)c(O)c2)oc2cc(O)cc(O)c12` .
active

State the result this test recorded for `O=S(=O)(O)c1cc(O)c2cc(Nc3ccccc3)ccc2c1` .
active

----------
target: HIV-1 integrase / human LEDGF/p75 complex; experiment: blockers of LEDGF/p75-dependent integrase activity – biochemical, TR-FRET, dose response (AID 1053172); details: TR-FRET integrase-LEDGF/p75 DNA integration
The source made the active and inactive calls. How the calls were made is not given here.
Select the correct class. Options are active, inactive and nothing else.

| Molecule | Cat |
| --- | --- |
| CN=c1scc(C)n1/N=C/c1ccc(O)c(O)c1O | active |
| CCn1c(C)nc2cc(C(=O)N/N=C/c3ccc(O)c(O)c3O)ccc21 | active |
| COc1ccc(/C=N\NC(=O)c2cc(O)c(O)c(O)c2)cc1CN1CCN(c2ccc(F)cc2)CC1 | inactive |
| COC(=O)c1ccc(C)c(NC(=O)CSc2sc3c(O)cc(=O)[nH]c3c2C#N)c1 | inactive |

Now for another entry.
State the result this test recorded for C=C1c2cccc(O)c2C(=O)C2C(=O)[C@]3(O)C(=O)C(C(N)=O)C(=O)[C@@H](N(C)C)[C@@H]3[C@@H](O)[C@H]12 (stereo not given in full) .
active

----------
target: HIV-1 integrase / human LEDGF/p75 complex; experiment: blockers of LEDGF/p75-dependent integrase activity – biochemical, TR-FRET, dose response (AID 1053172); conditions: TR-FRET integrase-LEDGF/p75 DNA integration
Active and inactive are the calls of the source. The rule behind the calls is not given here.
Select the correct class. Options are active, inactive and nothing else.

| Compound | Cat |
| --- | --- |
| Brc1ccc(-c2nn3c(-c4ccco4)nnc3s2)o1 | inactive |

State the result this test recorded for CN(C)C1C(=O)C(C(N)=O)=C(O)C2(O)C(=O)C3=C(O)c4c(O)cccc4C(C)(O)C3C(O)C12 (stereo not given) .
inactive

State the result this test recorded for `C(=C\c1ccco1)/c1ccc2ccccc2n1` .
inactive

State the result this test recorded for `O=S(=O)(O)c1cc(O)c(N=Nc2ccc(O)cc2O)c2ccccc12` .
inactive

State the result this test recorded for `O=C1Nc2ccccc2/C1=N\N=C\c1ccc(O)c(O)c1` .
active

State the result this test recorded for `Oc1ccc(-c2cn3c(n2)SCC3)cc1O` .
active

Where these numbers come from: PubChem BioAssay AID1053172
